# ASSAY COMMENT: protease stability score; higher = more stable; yeast display proteolysis, trypsin and chymotrypsin;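 also: relative to predicted unfolded state with 0 unfolded-like and 1 meaning tenfold more protease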
Please note: criterion met applies when protease stability score is 2 or greater, and criterion not met applies otherwise.

1. SELEEDMRYLLKLILDAFRTGDEHTFARLFDPHVRIEIGDKEFVGREFVLHHAHQLRIKRSHFNVEHFEWQGNKIRMHGILHFHGRFDGQERESYVDIHIVIEKVDGRWLVKSLHIH	criterion not met
2. SEIEETTRQASEFNLHSFRTGDEKMVHELADPHVRTDFNGKRLHGRESLTKELDKLLKDLGVDHVRIEHVNIYNGRVDIIMRVEVGDKEWKITIIAIKIDGKWKLESIEME	criterion not met
3. DEEEHSLRLALKILIHTRRTGDEHLLTEMADPNTRLDVNGVEVHGMEIFSKLTHEVVKRADHVEVHVKHIDIYGDKIRVHSEINYRQGDKEHSEKVHLVIKKFNGRWILHFVHIG	criterion not met
4. DEEKRDAREFLHLLFHAMITGDEDLVRHLADPHVKLDVNGRELHGWELFLTWFKRLLEEIRLTDIDVHHIELQGNKIILDTRLHVRVGDKEVDIHTEFHVVKVNGKWRLKTMRTE	criterion met
5. DREEHELLHAIERWLKAEETGDEHELKKLADPHTRTHIRIGDKHIERHGREDMIKVFRELGFKHHHMRSIEIQGDYVHVRGENRFDGQHITLILIFHKFDGRWILREVEVHIR	criterion not met
6. HEHEEELREFLRLWIEDLVTGNEDSLREFADPNMRIEQGDKEHHGREQFLEIMHRLVREARLEIILRRMNIFDGKANIDGELMIRIGDKHIRHHLRIIILKIDGVWLLKSIHVR	criterion not met
7. DEEEEWVRHLAHLFFEWYLTGDWQRFSELMDPTTLSVYGDKHFHGMELVVEFLSRSLDEMRIEHVEFKDIRVYNGVAHVHLRFEGKIGDKRTETDSRLLLYVVDGRIKHVKFIIK	criterion not met
8. DDQEEWAKIAMEMILEFLKTGDEELMLELLDPNVRVHLLIDGRHFEDHGRKATRWVIRFIKNVQVKIHNIEYQGDKVHIDVHVDVNGRKTRSREIWTLVDGRIEHVDVQDR	criterion not met
9. DEEEEDIEKFFKEWTRNVLTGNWERLRELADPHAKAVVDGVETHGMESLDKLIDESERKLGVDHTHLESVHVQGEWIHFHLRIIIGDKYLKLHIHTLVIDGRVKSMNVEFHSD	criterion not met
10. SELEHWAERLTRILIHSLYTGDEESLLKLADPRVRNDVNGVHVVGMEWFLKVWNKYRDELRIHHIEVRDIKIINGVAHSTVREDGEINGKKLDVETHVELDTVNGRLRIVHIRIV	criterion not met
11. DEDTQRREEWHHQFIMSMRTGDERLLLELVDPNYRSDINGVELHGWEFAEKLMRDAGVKHYELKRVHHIGDKMIVDGVTTFNGKERRVIFIARKIDGRWLITSSHFE	criterion not met
12. DEHHRLARDFWKMLADILKTGDEEIFRDLADPDTRMIQGDKLYHGRELISRELVRQVKEWRLHDFELHHIDEVNGRLLVDSRLVGHFDGRHYLMHVRIFMHKVDGRWVLHEMHYE	criterion not met
13. SEEHRLSEEIARIEVHAWITGDEHILHELLDPNTRLEVNGREYHGREIVLKMIREFWENLGAKHREVKRVRIELIDGRVTTHIKDKVSQGDKELEIIIEIITEKVNGRWVIRNMRIELR	criterion met
14. SEEDEHAEHMLRLWLHAIETGDEKLLLELVDPHAKNDVNGVDLHGRHEVWRHVYEMLHKFKNIRWDITETRYIGDYVHIRGILRQGDKTHDIRIKVVSFNGRIKKVEIRIE	criterion met
15. DEKEKDFHHMLEDWRWATRTGDEDTLKDLMDPNAKVRYGDYEFHGREHVIQFYQQIRFHEIHVHHVRVIGNKLEADTRVRIEYNGRELSFETHLVLLKIDGKWVMKIHEID	criterion met
16. DESHESLHKMLKVRYEALHTGDESMLNELLDPDARFNVDGRIHHGRERAVRYNERIPNLTTRDLKVHDWKVIGDKIHIDGRLEGHWNGKHHIINEEIIVQKINGKWLIEEVIVR	criterion not met
17. DEEKRHDEKLVEDFIHNVLTGDWEKLLRNMDPHARIHVDVGNFREERVGREDWIETLARRKNARFHIESYRIYNGQVDMEVRIEQGDKEHKFKLIIKFVDGVVRSISMQVE	criterion not met
18. DEDTRDTEIAFELLLRHMYTGDWHLVERMLDPNVRVHQGDFHTVGWEDFVRISLEARLHDMRIHQVRSQGDFVEIDGHVDFEINGKRIRVRTILIVLKVNGRWFLKSIEIR	criterion not met
19. LEDEEMLEEVDKRLVHAFLTGDFNTIERMLDPDTKVRINGRESIGRENVAKVLHEERRHMRLDIIEIRRIRLVGEFIHSDTRLDININGRRIKFTFRIIVLKINGQWIVESLEID	criterion met
20. SEEEEMDRHYSNLWNHLMFTGDWHWLEKLVDPHTRTIVDGQERHGREEALKVLKEVLEILGADVIRIHEMRYQGEKSNLVIEIKQGDKRLRVVIEVVVIDGVMHSLDLEIRHE	criterion not met
21. EEDKDWAEWAMRLFVELLFTGDEERLNHFLDPHVRVEFNGRDLHGREMLEKLLELMGIDHIQFKHIELRVIDGQVHLHIDGFADIDGRTHRIRIHMHFEKINGKWRFHSVKFEHK	criterion not met
